- target_or_test_system: glucan synthase (Saccharomyces cerevisiae, UniProt P38631)
- Construct: glucan synthase sources (2 μL permeabilized PM503 cells, or 3 μL membrane preparations from either PM503, BWP17, or ND158); endogenous in cells
- Sequence (P06780 1-206): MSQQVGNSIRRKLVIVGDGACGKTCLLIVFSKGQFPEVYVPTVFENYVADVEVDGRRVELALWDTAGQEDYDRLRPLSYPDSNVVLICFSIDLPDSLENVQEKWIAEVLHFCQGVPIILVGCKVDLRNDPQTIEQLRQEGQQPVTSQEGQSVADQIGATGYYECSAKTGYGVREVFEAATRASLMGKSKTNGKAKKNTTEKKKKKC
- Sequence (P38631 whole entry): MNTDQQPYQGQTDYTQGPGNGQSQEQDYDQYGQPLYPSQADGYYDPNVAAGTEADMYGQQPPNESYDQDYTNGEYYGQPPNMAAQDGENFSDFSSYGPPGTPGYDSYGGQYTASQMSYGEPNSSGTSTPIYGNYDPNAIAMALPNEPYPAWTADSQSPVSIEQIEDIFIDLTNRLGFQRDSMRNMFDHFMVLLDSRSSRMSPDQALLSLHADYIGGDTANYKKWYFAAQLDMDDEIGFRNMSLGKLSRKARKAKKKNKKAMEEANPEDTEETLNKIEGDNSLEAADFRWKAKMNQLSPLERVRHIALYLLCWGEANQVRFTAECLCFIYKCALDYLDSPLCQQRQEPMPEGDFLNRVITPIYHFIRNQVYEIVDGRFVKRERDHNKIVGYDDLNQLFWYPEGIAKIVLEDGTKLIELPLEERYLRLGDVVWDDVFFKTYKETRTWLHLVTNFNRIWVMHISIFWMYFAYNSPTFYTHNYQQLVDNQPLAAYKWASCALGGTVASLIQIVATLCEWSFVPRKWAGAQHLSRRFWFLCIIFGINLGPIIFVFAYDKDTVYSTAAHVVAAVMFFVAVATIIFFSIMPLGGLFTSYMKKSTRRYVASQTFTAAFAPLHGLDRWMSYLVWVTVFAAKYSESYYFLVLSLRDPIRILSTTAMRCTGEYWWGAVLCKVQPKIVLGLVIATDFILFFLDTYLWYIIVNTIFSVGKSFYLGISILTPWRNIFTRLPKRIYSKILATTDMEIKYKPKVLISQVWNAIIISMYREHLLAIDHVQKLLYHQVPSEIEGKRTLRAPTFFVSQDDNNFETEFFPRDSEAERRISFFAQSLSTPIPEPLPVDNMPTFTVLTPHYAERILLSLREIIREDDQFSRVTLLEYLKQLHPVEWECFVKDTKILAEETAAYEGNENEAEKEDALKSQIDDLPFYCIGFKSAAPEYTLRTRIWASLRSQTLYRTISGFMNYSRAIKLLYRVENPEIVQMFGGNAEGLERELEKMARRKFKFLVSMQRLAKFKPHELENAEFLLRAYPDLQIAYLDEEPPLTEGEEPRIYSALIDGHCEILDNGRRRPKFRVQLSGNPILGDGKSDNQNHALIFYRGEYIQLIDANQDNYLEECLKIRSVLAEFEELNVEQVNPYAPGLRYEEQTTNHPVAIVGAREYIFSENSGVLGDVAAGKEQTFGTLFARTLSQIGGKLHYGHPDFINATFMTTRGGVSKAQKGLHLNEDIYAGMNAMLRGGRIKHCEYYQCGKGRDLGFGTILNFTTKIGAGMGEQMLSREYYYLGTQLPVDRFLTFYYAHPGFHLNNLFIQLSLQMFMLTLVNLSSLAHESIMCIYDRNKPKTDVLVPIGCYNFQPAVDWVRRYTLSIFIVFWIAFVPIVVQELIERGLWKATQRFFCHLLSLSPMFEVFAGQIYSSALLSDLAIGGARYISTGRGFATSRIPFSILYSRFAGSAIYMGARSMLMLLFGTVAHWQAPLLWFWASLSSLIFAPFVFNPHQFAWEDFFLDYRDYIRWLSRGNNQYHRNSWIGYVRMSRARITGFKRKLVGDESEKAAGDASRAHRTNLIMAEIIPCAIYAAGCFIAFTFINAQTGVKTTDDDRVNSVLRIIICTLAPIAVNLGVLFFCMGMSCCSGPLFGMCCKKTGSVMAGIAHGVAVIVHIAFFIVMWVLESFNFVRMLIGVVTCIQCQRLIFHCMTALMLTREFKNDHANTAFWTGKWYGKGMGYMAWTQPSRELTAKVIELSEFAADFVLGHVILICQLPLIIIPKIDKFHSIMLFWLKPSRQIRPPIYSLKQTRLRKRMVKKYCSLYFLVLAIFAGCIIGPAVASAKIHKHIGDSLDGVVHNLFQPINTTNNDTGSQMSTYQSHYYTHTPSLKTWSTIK
- measurement_description: β(1,3) glucan synthase assay, S. cerevisiae PM503 permeabilized cells or membrane preparation (IC50)
pIC50: −log10 of the molar value.
Assign class by pIC50: not lower than 7 means met; lower than 7 means not met.

Worked examples follow.
Q: Identify whether the reported pIC50 of the following compound is 7 or greater: O=c1c(OC2CCCC2)c(N2CCN(S(=O)(=O)NCc3ccccc3)CC2)cnn1-c1cccc(Cl)c1 [808Z]
A: met

Q: Identify whether the reported pIC50 of the following compound is 7 or greater: CCOCCOc1c(N2CCN(C(=O)CC)CC2)cnn(-c2cccc(C)c2)c1=O [227Z]
A: not met

Q: Identify whether the reported pIC50 of the following compound is 7 or greater: Cc1cc(CS(=O)(=O)N2CCN(c3cnn(-c4cccc(Cl)c4)c(=O)c3OCC3(C)CC3)CC2)ccc1N [1869Z]
A: met

Q: Identify whether the reported pIC50 of the following compound is 7 or greater: CC1(COc2c(N3CCN(S(=O)(=O)Cc4ccc(Br)cc4)CC3)cnn(-c3cc(F)cc(F)c3)c2=O)CC1 [1529Z-33]
A: met

Field: next compound
Q: Identify whether the reported pIC50 of the following compound is 7 or greater: Nc1ccc(CS(=O)(=O)N2CCN(c3cnn(-c4cccc(Cl)c4)c(=O)c3OCC3CCC3)CC2)cc1 [1529Z-73]
A: not met

* * *

- target_or_test_system: glucan synthase (Candida albicans, UniProt O13428)
- Construct: glucan synthase sources (2 μL permeabilized PM503 cells, or 3 μL membrane preparations from either PM503, BWP17, or ND158); endogenous in cells; host or cells: C. albicans strain BWP17, 100,000 g membrane fraction
- Sequence (O13428 1-1897): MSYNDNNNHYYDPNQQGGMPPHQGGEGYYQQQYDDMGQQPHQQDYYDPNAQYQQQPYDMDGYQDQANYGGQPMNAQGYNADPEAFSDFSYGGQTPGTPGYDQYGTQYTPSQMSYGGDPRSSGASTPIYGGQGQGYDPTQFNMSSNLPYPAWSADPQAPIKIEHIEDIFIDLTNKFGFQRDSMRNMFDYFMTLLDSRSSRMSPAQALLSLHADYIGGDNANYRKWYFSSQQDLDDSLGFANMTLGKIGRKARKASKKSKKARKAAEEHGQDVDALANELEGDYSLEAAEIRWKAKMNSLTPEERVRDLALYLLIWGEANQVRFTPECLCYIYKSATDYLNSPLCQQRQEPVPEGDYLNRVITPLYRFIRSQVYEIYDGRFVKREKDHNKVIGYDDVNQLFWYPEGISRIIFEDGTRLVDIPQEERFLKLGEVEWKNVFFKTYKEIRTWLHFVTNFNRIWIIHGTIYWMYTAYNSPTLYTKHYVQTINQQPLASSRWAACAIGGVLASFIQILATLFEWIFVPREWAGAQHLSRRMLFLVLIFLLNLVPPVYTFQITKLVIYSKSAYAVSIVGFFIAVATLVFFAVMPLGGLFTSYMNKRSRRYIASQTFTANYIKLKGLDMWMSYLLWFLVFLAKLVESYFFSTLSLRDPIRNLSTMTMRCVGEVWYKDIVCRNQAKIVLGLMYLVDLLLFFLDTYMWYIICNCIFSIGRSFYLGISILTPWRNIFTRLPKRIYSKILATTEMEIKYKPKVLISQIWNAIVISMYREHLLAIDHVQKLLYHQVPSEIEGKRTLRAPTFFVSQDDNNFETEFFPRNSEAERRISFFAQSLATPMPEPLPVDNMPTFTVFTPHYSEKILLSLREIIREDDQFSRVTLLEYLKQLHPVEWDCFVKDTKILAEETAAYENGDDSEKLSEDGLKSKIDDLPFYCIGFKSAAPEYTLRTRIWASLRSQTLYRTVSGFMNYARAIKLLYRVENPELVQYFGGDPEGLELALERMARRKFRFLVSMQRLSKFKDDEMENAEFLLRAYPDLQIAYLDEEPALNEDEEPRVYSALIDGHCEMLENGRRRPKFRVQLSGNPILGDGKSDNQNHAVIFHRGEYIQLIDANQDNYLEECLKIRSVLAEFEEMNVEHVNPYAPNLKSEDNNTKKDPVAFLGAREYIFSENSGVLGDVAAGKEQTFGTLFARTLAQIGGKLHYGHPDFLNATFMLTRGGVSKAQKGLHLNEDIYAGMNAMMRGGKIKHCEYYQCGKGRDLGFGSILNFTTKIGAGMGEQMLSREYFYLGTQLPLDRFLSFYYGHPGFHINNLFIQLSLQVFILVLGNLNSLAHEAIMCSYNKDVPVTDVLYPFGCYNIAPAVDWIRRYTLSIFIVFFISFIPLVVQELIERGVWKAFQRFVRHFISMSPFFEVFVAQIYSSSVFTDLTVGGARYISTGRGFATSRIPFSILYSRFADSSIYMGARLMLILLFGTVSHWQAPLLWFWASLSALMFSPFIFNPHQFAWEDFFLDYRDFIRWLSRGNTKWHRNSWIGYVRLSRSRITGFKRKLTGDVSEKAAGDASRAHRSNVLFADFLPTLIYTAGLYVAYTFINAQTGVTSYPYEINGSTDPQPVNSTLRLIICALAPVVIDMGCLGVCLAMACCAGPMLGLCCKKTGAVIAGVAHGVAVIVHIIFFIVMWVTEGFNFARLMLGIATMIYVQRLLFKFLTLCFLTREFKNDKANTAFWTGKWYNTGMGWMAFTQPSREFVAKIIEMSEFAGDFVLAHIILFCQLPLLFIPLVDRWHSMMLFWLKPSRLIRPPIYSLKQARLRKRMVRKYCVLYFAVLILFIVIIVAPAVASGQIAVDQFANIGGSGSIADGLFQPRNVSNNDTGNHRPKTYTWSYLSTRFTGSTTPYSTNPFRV
- Sequence (O42825 1-195 partner limits assumed): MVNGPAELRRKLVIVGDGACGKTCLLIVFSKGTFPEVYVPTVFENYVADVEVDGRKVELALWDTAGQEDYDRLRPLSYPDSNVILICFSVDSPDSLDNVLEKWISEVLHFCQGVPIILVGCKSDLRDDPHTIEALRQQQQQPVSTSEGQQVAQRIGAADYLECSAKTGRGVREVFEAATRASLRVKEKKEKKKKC
- measurement_description: β(1,3) glucan synthase assay, C. albicans BWP17 membrane preparation (IC50)
- Type: biochemical
- condition_info: in vitro fungal enzyme activity assay, read-out: IC50 (μg/mL) Candida albicans (converted)
measure: IC50 (nM)
One number for each entry, in nM.

According to the records, this compound O=c1c(OCC2(CF)CC2)c(N2CCN(S(=O)(=O)NCc3ccc4ncoc4c3)CC2)cnn1-c1cccc(Cl)c1 [1743Z] displays IC50 of 99.5

According to the records, this compound CCOCCOc1c(N2CCN(c3ncc([N+](=O)[O-])s3)CC2)cnn(-c2cccc(C)c2)c1=O [240Z] displays IC50 of 201000

According to the records, this compound Cc1cc(CS(=O)(=O)N2CCN(c3cnn(-c4cc(F)cc(F)c4)c(=O)c3OCC3(C)CC3)CC2)ccc1N [1870Z] displays IC50 of 125

Note: attention shifts to another entry.
According to the records, this compound CC1(COc2c(N3CCN(S(=O)(=O)Cc4ccc(Br)cc4)CC3)cnn(-c3cc(F)cc(F)c3)c2=O)CC1 [1529Z-33] displays IC50 of 32.8

* * *

- target_or_test_system: glucan synthase (Saccharomyces cerevisiae)
- Construct: glucan synthase sources (2 μL permeabilized PM503 cells, or 3 μL membrane preparations from either PM503, BWP17, or ND158); endogenous in cells
- measurement_description: β(1,3) glucan synthase assay, S. cerevisiae PM503 permeabilized cells or membrane preparation (IC50)
measure: IC50 (nM)
Give bare numbers, in nM.

Illustrative cases are given below, each with its answer.
According to the records, this compound O=C(NCc1ccccc1)N1CCN(c2cnn(-c3cccc(Cl)c3)c(=O)c2OC2CCCC2)CC1 [204Z] displays IC50 of 203000

According to the records, this compound Nc1ccccc1CS(=O)(=O)N1CCN(c2cnn(-c3cc(F)cc(F)c3)c(=O)c2OC2CCCC2)CC1 [738Z] displays IC50 of 73.3

Note: attention shifts to another entry.
According to the records, this compound CCCCCCSc1c(N2CCN(S(C)(=O)=O)CC2)cnn(-c2cc(F)cc(F)c2)c1=O [11Z] displays IC50 of 2470
